tested system: human vasopressin V1a receptor subtype (Homo sapiens)
Construct: host or cells: CHO cells, stably transfected (pZeoSV vector for the Thibonnier line)
Sequence (P37288 whole entry): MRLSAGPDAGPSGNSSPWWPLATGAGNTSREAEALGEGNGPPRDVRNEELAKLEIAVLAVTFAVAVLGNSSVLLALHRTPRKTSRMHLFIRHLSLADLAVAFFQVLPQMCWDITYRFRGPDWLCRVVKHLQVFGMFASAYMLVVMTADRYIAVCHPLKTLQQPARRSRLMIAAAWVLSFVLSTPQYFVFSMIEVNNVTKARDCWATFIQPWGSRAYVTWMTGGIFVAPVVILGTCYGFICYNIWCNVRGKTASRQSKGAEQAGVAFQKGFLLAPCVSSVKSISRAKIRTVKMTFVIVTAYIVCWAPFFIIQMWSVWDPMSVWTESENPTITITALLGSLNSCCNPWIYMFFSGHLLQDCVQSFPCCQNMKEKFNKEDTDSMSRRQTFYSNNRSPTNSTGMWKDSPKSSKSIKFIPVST
test method notes: Vasopressin binding in CHO cell membranes expressing human vasopressin V1a subtype receptors ([3H]Manning ligand radioligand binding)
condition context: 100 nM
Entry flag: class 1 if inhibition at 0.1 µM reaches 20%; class 0 if it does not.

Example cases with answers are listed next.
INSERT INTO results (compound, assigned_class) VALUES
  ('COc1ccccc1-c1ccc(C(=O)N2Cc3ccc(C(=O)NCc4ccncc4)n3Cc3ccccc32)cc1 [Example 91]', 'class 0'),
  ('COc1ccccc1-c1ccc(C(=O)N2Cc3ccc(C(=O)N4CCCCC4c4cccnc4)n3Cc3ccccc32)cc1 (stereo not drawn) [Example 139]', 'class 1'),
  ('Cc1cc(C(=O)N2Cc3ccc(C(=O)N4CCCCC4c4cccnc4)n3Cc3ccccc32)ccc1-c1ccccc1C(F)(F)F (stereo not drawn) [Example 142]', 'class 0');

In: Determine whether this compound has inhibition at 0.1 µM no lower than 20%: COc1cc(C(=O)N2Cc3ccc(C(=O)N(C)CCc4ccncc4)n3Cc3ccccc32)ccc1-c1cccc2ccccc12 [Example 134]
Out: class 1

In: Identify whether the reported inhibition at 0.1 µM of the following compound is 20% or greater: COc1ccccc1-c1ccc(C(=O)N2Cc3ccc(C(=O)NCc4ccncc4)n3Cc3ccccc32)cc1C [Example 88]
Out: class 0

In: Hi, just wondering whether Cc1ccccc1-c1ccc(C(=O)N2Cc3ccc(C(=O)N(C)Cc4cccnc4)n3Cc3ccccc32)cc1 [Example 105] shows inhibition at 0.1 µM of 20% or higher.
Out: class 0

In: # check: inhibition at 0.1 µM of Cc1ccccc1-c1ccc(C(=O)N2Cc3ccc(C(=O)N(C)CCc4ccncc4)n3Cc3ccccc32)cc1 [Example 130] is greater than or equal to 20%
Out: class 0

In: In plain terms: is recorded inhibition at 0.1 µM at least 20% for Cc1ccccc1-c1ccc(C(=O)N2Cc3ccc(C(=O)N(C)CCc4ccccn4)n3Cc3ccccc32)cc1C [Example 66] ?
Out: class 1

In: Decide: is the reported value of inhibition at 0.1 µM for COc1ccccc1-c1ccc(C(=O)N2Cc3ccc(C(=O)N4CCCCC4c4cccnc4)n3Cc3ccccc32)cc1C (stereo not drawn) [Example 138] equal to or greater than 20%?
Out: class 0

In: Is inhibition at 0.1 µM at least 20%? Consider COc1cccc(-c2ccc(C(=O)N3Cc4ccc(C(=O)NCc5ccccn5)n4Cc4ccccc43)cc2C)c1 [Example 25]
Out: class 1

In: Quick check: does Cc1ccccc1-c1ccc(C(=O)N2Cc3ccc(C(=O)N4CCN(c5ccccn5)CC4)n3Cc3ccccc32)cc1 [Example 79] have inhibition at 0.1 µM greater than or equal to 20%?
Out: class 0

In: Determine whether this compound has inhibition at 0.1 µM no lower than 20%: Cc1cc(C(=O)N2Cc3ccc(C(=O)NCc4ccncc4)n3Cc3ccccc32)ccc1-c1ccccc1C(F)(F)F [Example 100]
Out: class 0
